Target: T1, E. coli Exonuclease I (Escherichia coli, UniProt P04995 1-475)
T1 construct: also called ExoI; Exol
T1 sequence: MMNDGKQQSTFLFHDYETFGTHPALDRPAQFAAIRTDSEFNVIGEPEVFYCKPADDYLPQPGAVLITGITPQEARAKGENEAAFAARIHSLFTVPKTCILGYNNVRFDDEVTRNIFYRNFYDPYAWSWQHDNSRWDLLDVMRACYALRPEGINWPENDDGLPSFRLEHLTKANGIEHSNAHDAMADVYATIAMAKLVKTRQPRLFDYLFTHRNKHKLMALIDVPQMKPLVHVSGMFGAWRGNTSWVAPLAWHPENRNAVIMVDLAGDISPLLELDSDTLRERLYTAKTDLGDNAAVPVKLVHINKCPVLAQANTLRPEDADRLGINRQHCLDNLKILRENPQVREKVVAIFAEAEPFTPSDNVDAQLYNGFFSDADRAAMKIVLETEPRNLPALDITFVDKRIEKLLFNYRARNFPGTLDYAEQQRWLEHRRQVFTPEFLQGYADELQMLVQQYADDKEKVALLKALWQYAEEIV
Assay: fluorescence polarization competition: unlabeled peptide titrated into 1 uM ExoI with 10 nM fluorescein-labeled SSB C-terminal peptide
pKi: −log10 of the molar value.

{"columns": ["Binder", "pKi"],
 "data": [
  ["WMDFDDDIPF (also called unlabeled peptide; SSB-Ct peptide) [WT peptide (WMDFDDDIPF, without a fluorescent moiety)]", 7.28]
]}
